assay: chemical genetic growth profiling, strain panel (AID 1159580);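 further: tested at 20 µM; growth read once vehicle control cultures reached saturation at 30 °C; 1 = growth at the plate median or of vehicle wells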; conditions: S. cerevisiae deletion strains, growth OD, locus YNL153C, strain GIM3, stronger effect = lower value
Among all 5,500 compounds or so, about 2,000 (36%) were called active. Not shown: some 18% with an inconclusive outcome. Some of the results follow.
Labelling field: enter yes (1) if recorded normalized growth is less than 1. Enter no (0) if it equals or exceeds that cut-off.

[
  {
    "molecule": "O=[N+]([O-])c1ccccc1SCc1n[nH]c(=S)n1-c1cccc(C(F)(F)F)c1",
    "class name": "no (0)"
  },
  {
    "molecule": "O=C1CC(CSc2ccc(Cl)cc2)=NN1",
    "class name": "yes (1)"
  },
  {
    "molecule": "COc1cccc(OC)c1OCCNCC1COc2ccccc2O1 (configuration not stated)",
    "class name": "no (0)"
  },
  {
    "molecule": "COC1=C[C@@H]2[C@@H]3Cc4ccc(OC)c(O)c4[C@]2(CCN3C)CC1=O",
    "class name": "yes (1)"
  },
  {
    "molecule": "S=C(NCc1ccccc1)Nc1ccc(Cl)c(Cl)c1",
    "class name": "yes (1)"
  }
]

Is the reported normalized growth for O=C(CSCc1c(F)cccc1Cl)Nc1ccc(F)c(Cl)c1 strictly below 1?
yes (1)
